I'd appreciate it if you could supply Time after yellow-brown discoloration of a 1% strength aqueous solution values for the items below.
- measurement context: sealed, dark at 25° C.

molecule	result
C/C=C/C=C/C(=O)[O-].CC(=O)[O-].[Ca+2] [calcium acetate sorbate]	>12 months />12 months
C/C=C/C=C/C(=O)[O-].O=C[O-].[Ca+2]	12 months/>12 months
C/C=C/C=C/C(=O)[O-].CCC(=O)[O-].[Ca+2] [calcium propionate sorbate]	>12 months/>12 months

Next, consider the following molecule.
I'd like to know its Time after yellow-brown discoloration of a 1% strength aqueous solution. The molecule in question is `CCC(=O)[O-].O=C([O-])c1ccccc1.[Ca+2]`
8 months

* * *

Answer each item with its documented Number of surviving microorganisms per g of contaminated sample, Gram-negative bacteria.
- Tested on: Gram-negative bacteria
- measurement context: Part II, 1 g/l in apple juice pH 4.5, 25° C., 14 days after inoculation (2.7 × 10^4)

molecule	result
C/C=C/C=C/C(=O)[O-].O=C[O-].[Ca+2]	<10 CFU/g

Give one value of Number of surviving microorganisms per g of contaminated sample, Gram-negative bacteria per listed molecule.
1. O=C[O-].O=C[O-].[Ca+2] [Calcium Formate]
2. CC(=O)[O-].CC(=O)[O-].[Ca+2] [Calcium Acetate]
3. C/C=C/C=C/C(=O)[O-].CC(=O)[O-].[Ca+2] [calcium acetate sorbate]

1. 75 CFU/g
2. <100 CFU/g
3. 4.2 × 10^4 CFU/g

* * *

For each of the compounds below, state its Number of surviving microorganisms per g of contaminated sample, Yeasts.
- System: Yeasts
- measurement context: Part II, 1 g/l in apple juice pH 4.5, 25° C., 14 days after inoculation (2.6 × 10^4)

Solved cases (3 shown):
compound	result
O=C[O-].O=C[O-].[Ca+2] [Calcium Formate]	>3.0 × 10^6 CFU/g
C/C=C/C=C/C(=O)[O-].O=C[O-].[Ca+2]	<10 CFU/g
C/C=C/C=C/C(=O)[O-].CC(=O)[O-].[Ca+2] [calcium acetate sorbate]	<10 CFU/g

// query Number of surviving microorganisms per g of contaminated sample, Yeasts value for entry CC(=O)[O-].CC(=O)[O-].[Ca+2] [Calcium Acetate]
>3.0 × 10^6 CFU/g

* * *

- System: Lactic acid bacteria
- measurement context: Part II, 1 g/l in apple juice pH 4.5, 25° C., 14 days after inoculation (2.7 × 10^4)
I'd appreciate it if you could supply Number of surviving microorganisms per g of contaminated sample, Lactic acid bacteria values for the items below.

Example entries begin here.
compound	result
C/C=C/C=C/C(=O)[O-].O=C[O-].[Ca+2]	<10 CFU/g
C/C=C/C=C/C(=O)[O-].CC(=O)[O-].[Ca+2] [calcium acetate sorbate]	<10 CFU/g
O=C[O-].O=C[O-].[Ca+2] [Calcium Formate]	>3.0 × 10^6 CFU/g

Now consider the entry below.
Which Number of surviving microorganisms per g of contaminated sample, Lactic acid bacteria value belongs to CC(=O)[O-].CC(=O)[O-].[Ca+2] [Calcium Acetate] ?
2.4 × 10^4 CFU/g

* * *

- measurement context: sealed, under sunlight at 7° C.
Assignment: determine reported Time after yellow-brown discoloration of a 1% strength aqueous solution for the given compounds.

compound	result
CCC(=O)[O-].O=C([O-])c1ccccc1.[Ca+2]	12 months
C/C=C/C=C/C(=O)[O-].CC(=O)[O-].[Ca+2] [calcium acetate sorbate]	12 months />12 months
C/C=C/C=C/C(=O)[O-].CCC(=O)[O-].[Ca+2] [calcium propionate sorbate]	12 months/12 months

Moving on to the next compound.
Request the reported Time after yellow-brown discoloration of a 1% strength aqueous solution associated with `C/C=C/C=C/C(=O)[O-].O=C[O-].[Ca+2]`
12 months/>12 months

* * *

Give measured Time after yellow-brown discoloration of the powder for each item. Keep answers brief.
- measurement context: sealed, dark at 25° C.

compound	result
C/C=C/C=C/C(=O)[O-].CCC(=O)[O-].[Ca+2] [calcium propionate sorbate]	12 months/>12 months

List Time after yellow-brown discoloration of the powder for every entry below, keeping the order given.
1. C/C=C/C=C/C(=O)[O-].CC(=O)[O-].[Ca+2] [calcium acetate sorbate]
2. C/C=C/C=C/C(=O)[O-].O=C[O-].[Ca+2]
3. CCC(=O)[O-].O=C([O-])c1ccccc1.[Ca+2]

1: 12 months />12 months; 2: >12 months />12 months; 3: 7 months

* * *

- measurement context: sealed, under sunlight at 25° C.
recorded endpoint: Time after yellow-brown discoloration of the powder

molecule	result
C/C=C/C=C/C(=O)[O-].CC(=O)[O-].[Ca+2] [calcium acetate sorbate]	12 months />12 months

# per-item lookup of Time after yellow-brown discoloration of the powder; items listed below
1. C/C=C/C=C/C(=O)[O-].CCC(=O)[O-].[Ca+2] [calcium propionate sorbate]
2. C/C=C/C=C/C(=O)[O-].O=C[O-].[Ca+2]
3. CCC(=O)[O-].O=C([O-])c1ccccc1.[Ca+2]

1: 12 months/12 months; 2: 12 months/>12 months; 3: 8 months

* * *

Assignment: determine reported Number of surviving microorganisms per g of contaminated sample, Gram-negative bacteria for the given compounds.
- Test system: Gram-negative bacteria
- measurement context: Part II, 1 g/l in apple juice pH 4.5, 25° C., 3 days after inoculation (2.7 × 10^4)

Here are 3 compounds together with their reported answers.
compound	result
C/C=C/C=C/C(=O)[O-].CC(=O)[O-].[Ca+2] [calcium acetate sorbate]	3.2 × 10^3 CFU/g
C/C=C/C=C/C(=O)[O-].O=C[O-].[Ca+2]	2.5 × 10^3 CFU/g
CC(=O)[O-].CC(=O)[O-].[Ca+2] [Calcium Acetate]	1.3 × 10^4 CFU/g

Please look at the following compound next.
Entry under review: O=C[O-].O=C[O-].[Ca+2] [Calcium Formate] . Reported Number of surviving microorganisms per g of contaminated sample, Gram-negative bacteria?
3.6 × 10^3 CFU/g

* * *

- Test system: Molds I
- measurement context: Part II, 1 g/l in apple juice pH 4.5, 25° C., 1 day after inoculation (2.2 × 10^4)
recorded endpoint: Number of surviving microorganisms per g of contaminated sample, Molds I

Observe how each entry below is paired with its result.
compound	result
CC(=O)[O-].CC(=O)[O-].[Ca+2] [Calcium Acetate]	1.1 × 10^4 CFU/g
C/C=C/C=C/C(=O)[O-].O=C[O-].[Ca+2]	3.8 × 10^3 CFU/g

Respectfully, I request Number of surviving microorganisms per g of contaminated sample, Molds I for each entry included below.
1. O=C[O-].O=C[O-].[Ca+2] [Calcium Formate]
2. C/C=C/C=C/C(=O)[O-].CC(=O)[O-].[Ca+2] [calcium acetate sorbate]

1: 4.1 × 10^3 CFU/g; 2: 3.7 × 10^3 CFU/g

* * *

- measurement context: sealed, under sunlight at 7° C.
recorded endpoint: Time after yellow-brown discoloration of the powder

Worked examples, 3 compounds total:
compound	result
C/C=C/C=C/C(=O)[O-].O=C[O-].[Ca+2]	12 months/>12 months
C/C=C/C=C/C(=O)[O-].CC(=O)[O-].[Ca+2] [calcium acetate sorbate]	12 months />12 months
CCC(=O)[O-].O=C([O-])c1ccccc1.[Ca+2]	12 months

// moving on: another record for Time after yellow-brown discoloration of the powder
Record request: Time after yellow-brown discoloration of the powder value, item C/C=C/C=C/C(=O)[O-].CCC(=O)[O-].[Ca+2] [calcium propionate sorbate]
12 months/12 months

* * *

Task for the reader: assign each of the following compounds its reported Number of surviving microorganisms per g of contaminated sample, Gram-negative bacteria.
- Tested on: Gram-negative bacteria
- measurement context: Part II, 1 g/l in apple juice pH 4.5, 25° C., 7 days after inoculation (2.7 × 10^4)

compound	system tested	result
C/C=C/C=C/C(=O)[O-].CC(=O)[O-].[Ca+2] [calcium acetate sorbate]	Gram-negative bacteria	1.5 × 10^3 CFU/g
CC(=O)[O-].CC(=O)[O-].[Ca+2] [Calcium Acetate]	Gram-negative bacteria	2.2 × 10^3 CFU/g
C/C=C/C=C/C(=O)[O-].O=C[O-].[Ca+2]	Gram-negative bacteria	2.0 × 10^3 CFU/g

I am curious: what Number of surviving microorganisms per g of contaminated sample, Gram-negative bacteria value has been reported for O=C[O-].O=C[O-].[Ca+2] [Calcium Formate] ?
2.3 × 10^3 CFU/g

* * *

- measurement context: sealed, under sunlight at 25° C.
Give Time after yellow-brown discoloration of a 1% strength aqueous solution for every item shown.

Reference set, count: 3
molecule	result
CCC(=O)[O-].O=C([O-])c1ccccc1.[Ca+2]	7-8 months
C/C=C/C=C/C(=O)[O-].CCC(=O)[O-].[Ca+2] [calcium propionate sorbate]	12 months/12 months
C/C=C/C=C/C(=O)[O-].O=C[O-].[Ca+2]	12 months/>12 months

Continue with the molecule presented below.
Query (molecule): C/C=C/C=C/C(=O)[O-].CC(=O)[O-].[Ca+2] [calcium acetate sorbate] ; field requested: Time after yellow-brown discoloration of a 1% strength aqueous solution
12 months />12 months
